ASSAY COMMENT: basal MM1S mitochondrial membrane potential changes, profiling panel, cell-based, JC-1 fluorescence, 24 h, 100 nL compound (AID 1170); also: test concentration not given here
MEASUREMENT CONTEXT: higher = more signal
MEASURE: z-score

COMPOUND: CO[C@H]1O[C@H](CO)[C@@H](OC(=O)Nc2ccc3c(c2)OCO3)[C@H](OC(=O)Nc2ccccc2)[C@H]1OC(=O)Nc1ccccc1
ENDPOINT RESULT: -1.37

COMPOUND: O=C1O[C@H](c2ccccc2)[C@H](c2ccccc2)N2[C@H]1[C@@H](C(=O)O)[C@]1(C(=O)Nc3ccc(C#CC4(O)CCCCCC4)cc31)[C@H]2c1ccc(OCCO)cc1
ENDPOINT RESULT: -0.683

COMPOUND: O=C1OCC=C[C@H]2OC34C=CCN(c5ccc6ccccc6c5)C(=O)[C@H]3N(CCCO)C(=O)[C@@H]4[C@@H]12 (stereo partly drawn)
ENDPOINT RESULT: -0.46
